System Under Test: UniProt P11717
Test Protocol: Human CI-M6PR binding assay (ELISA)
Design: purchased R&D 6418-GR-050
Test Settings: antibody conjugate, average loading DAR 4; read-out: EC50 (nM) in M6PR binding assay
Recorded Metric: EC50 (nM)

smiles_code=O=C(CCOCCOCCOCCOCCn1cc(CCCCNC(=S)Nc2ccc(O[C@H]3O[C@H](CCP(=O)(O)O)[C@@H](O)[C@H](O)[C@@H]3O)cc2)nn1)Oc1c(F)c(F)c(F)c(F)c1F recorded_metric=EC50 numeric_value=0.22

###

System Under Test: CI-M6PR (Homo sapiens)
Sequence (P11717 41-1365 limits assumed): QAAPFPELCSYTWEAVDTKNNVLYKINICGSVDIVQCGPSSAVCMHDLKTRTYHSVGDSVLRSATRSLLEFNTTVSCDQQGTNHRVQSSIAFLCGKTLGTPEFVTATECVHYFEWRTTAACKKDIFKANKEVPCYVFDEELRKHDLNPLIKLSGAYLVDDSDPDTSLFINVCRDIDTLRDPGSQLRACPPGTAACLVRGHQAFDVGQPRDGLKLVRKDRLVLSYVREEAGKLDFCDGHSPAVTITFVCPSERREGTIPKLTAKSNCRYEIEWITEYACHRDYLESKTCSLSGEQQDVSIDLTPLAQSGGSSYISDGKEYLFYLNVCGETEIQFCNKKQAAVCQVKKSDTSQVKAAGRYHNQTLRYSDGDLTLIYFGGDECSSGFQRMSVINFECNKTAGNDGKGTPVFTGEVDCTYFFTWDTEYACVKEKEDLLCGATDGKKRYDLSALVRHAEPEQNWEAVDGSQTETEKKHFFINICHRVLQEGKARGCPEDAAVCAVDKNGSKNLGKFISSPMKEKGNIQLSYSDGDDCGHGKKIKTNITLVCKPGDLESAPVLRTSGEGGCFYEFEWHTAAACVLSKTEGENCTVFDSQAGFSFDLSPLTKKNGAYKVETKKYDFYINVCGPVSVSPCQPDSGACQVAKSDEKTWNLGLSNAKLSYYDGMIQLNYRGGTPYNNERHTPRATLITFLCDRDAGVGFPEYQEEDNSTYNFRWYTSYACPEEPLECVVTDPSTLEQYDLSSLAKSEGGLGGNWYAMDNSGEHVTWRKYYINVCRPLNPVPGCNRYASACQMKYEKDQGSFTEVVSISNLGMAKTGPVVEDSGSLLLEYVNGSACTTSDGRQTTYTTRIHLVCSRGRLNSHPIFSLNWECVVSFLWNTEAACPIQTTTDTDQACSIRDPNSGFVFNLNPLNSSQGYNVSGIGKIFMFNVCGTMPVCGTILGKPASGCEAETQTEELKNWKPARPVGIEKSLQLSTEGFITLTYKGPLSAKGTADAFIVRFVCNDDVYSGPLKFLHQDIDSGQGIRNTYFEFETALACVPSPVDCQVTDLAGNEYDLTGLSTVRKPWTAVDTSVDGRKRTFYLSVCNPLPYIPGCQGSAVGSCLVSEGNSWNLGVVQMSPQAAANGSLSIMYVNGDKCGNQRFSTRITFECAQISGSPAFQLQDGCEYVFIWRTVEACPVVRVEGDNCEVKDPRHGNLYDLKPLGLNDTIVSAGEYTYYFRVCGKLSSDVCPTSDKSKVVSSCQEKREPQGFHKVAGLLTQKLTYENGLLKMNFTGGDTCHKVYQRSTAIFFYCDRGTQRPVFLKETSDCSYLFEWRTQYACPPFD
Test Protocol: Human CI-M6PR binding assay (ELISA)
Set-up: purchased R&D 6418-GR-050
Test Settings: Table 16E; conjugate, m average DAR 4; read-out: EC50 in M6PR binding assay for conjugates of monovalent compounds of varying linker length and loading
Procedure: Nunc black solid bottom MaxiSorp plates were allowed to incubate overnight at 4° C. coated with 1 μg/mL of recombinant human CI-M6PR protein (R&D, 6418-GR-050) in 50 μL PBS. The next day, coating was decanted and plates were washed 3× with PBS. Wells were blocked with 350 μL of 3% BSA-PBS for 1 hour at room temperature. […] After incubation, plates were read on a Perkin Elmer EnVision using photometric 340 and Umbelliferone 460 filter sets for excitation and emission, respectively. […]
pEC50: −log10 of the molar value.
Recorded Metric: pEC50

smiles_code=O=C(CCOCCOCCOCCOCCn1cc(CCCCNC(=S)Nc2ccc(O[C@H]3O[C@H](CCP(=O)(O)O)[C@@H](O)[C@H](O)[C@@H]3O)cc2)nn1)Oc1c(F)c(F)c(F)c(F)c1F system_under_test="CI-M6PR (Homo sapiens)" recorded_metric=pEC50 numeric_value=9.52

###

System Under Test: UniProt:P11717
Test Protocol: Human CI-M6PR binding assay (ELISA)
Parameters: purchased R&D 6418-GR-050
Test Settings: Table 16E; conjugate, m average DAR 2; read-out: EC50 in M6PR binding assay for conjugates of monovalent compounds of varying linker length and loading
pEC50: −log10 of the molar value.
Recorded Metric: pEC50

compound="O=C(CCOCCOCCOCCOCCn1cc(CCCCNC(=S)Nc2ccc(O[C@H]3O[C@H](CCP(=O)(O)O)[C@@H](O)[C@H](O)[C@@H]3O)cc2)nn1)Oc1c(F)c(F)c(F)c(F)c1F [520 (I-7)]" recorded_metric=pEC50 numeric_value=8.43

###

System Under Test: M6PR (Domains I-9, R&D Systems) (Homo sapiens, UniProt P11717)
Sequence (P11717 41-1365 limits assumed): as above
Reported IC50 values are given for each entry in this list.
Recorded Metric: IC50

smiles_code=C#CCCCCCOC[C@H]1O[C@H](OC)[C@@H](O[C@H]2O[C@H](CCP(=O)(O)O)[C@@H](O)[C@H](O)[C@@H]2O)[C@@H](O)[C@@H]1O result="≥ 0.5 µM"
smiles_code=CC(=O)N[C@@H](CCCCn1cc(CCCCNC(=O)Nc2ccc(O[C@H]3O[C@H](CCP(=O)(O)O)[C@@H](O)[C@H](O)[C@@H]3O)cc2)nn1)C(=O)N[C@@H](CCCCn1cc(CCCCNC(=O)Nc2ccc(O[C@H]3O[C@H](CCP(=O)(O)O)[C@@H](O)[C@H](O)[C@@H]3O)cc2)nn1)C(=O)NCCOCCOCCOCCOCCC(=O)O result="0.1 to 0.5 µM"
